All values here come from patent US20240109962A1.

Some binders, each annotated with its measured Bmax.
- tested.on: T1, human LILRB2 expressed on cells (293T-LILRB2, CHO-K1-LILRB2) (human, UniProt Q8N423 22-597)
- T1 construct: whole, on cells; the cell line is named under assay; also called HEK293T-LILRB2
- experimental.protocol: flow cytometry on 293T-LILRB2 cells, serial dilution, APC anti-human IgG; fit table under the graph
Write the number in RFU without appending the unit.

Examples with answers:
* Antibody h#2E1 (antibody, V domains shown, Humanized variant of 11B12; detected with anti-human IgG) VH: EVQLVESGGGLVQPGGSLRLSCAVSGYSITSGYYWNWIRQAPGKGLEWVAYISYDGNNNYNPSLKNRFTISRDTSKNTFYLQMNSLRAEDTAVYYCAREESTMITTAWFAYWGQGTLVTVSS VL: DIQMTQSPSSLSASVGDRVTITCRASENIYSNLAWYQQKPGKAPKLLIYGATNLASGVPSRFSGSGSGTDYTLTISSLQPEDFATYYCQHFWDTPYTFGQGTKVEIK | 618000
* Antibody h#2G6 (antibody, V domains shown, Humanized variant of 11B12) VH: EVQLVESGGGLVQPGGSLRLSCAVSGYSITSGYYWNWVRQAPGKGLEWVAYISYDGNNNYNPSLKNRFTISRDASKNTFYLQMNSLRAEDTAVYYCAREESTMITTAWFAYWGQGTLVTVSS VL: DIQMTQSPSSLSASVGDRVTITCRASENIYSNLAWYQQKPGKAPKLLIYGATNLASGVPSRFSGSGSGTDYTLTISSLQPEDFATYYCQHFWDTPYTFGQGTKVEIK | 582000

# input binder: Antibody h#2D1 (antibody, V domains shown, Humanized variant of 11B12) VH: EVQLVESGGGLVQPGGSLRLSCAVSGYSITSGYYWNWVRQAPGKGLEWVAYISYDGNNNYNPSLKNRFTISRDTSKNTVYLQMNSLRAEDTAVYYCVREESTMITTAWFAYWGQGTLVTVSS VL: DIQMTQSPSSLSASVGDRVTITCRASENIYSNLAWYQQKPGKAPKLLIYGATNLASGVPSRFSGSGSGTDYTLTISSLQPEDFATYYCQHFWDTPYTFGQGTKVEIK ; wanted: its Bmax
565000
